Values from ChEMBL document CHEMBL1156829

experiment-summary: NOVARTIS: Inhibition Frequency Index (IFI) - the number of HTS assays where a compound showed > 50% inhibition/induction, expressed as a percentage of the number of assays in which the compound was tested.
Format: functional
In all, about 5,400 compounds were measured (“IFI”: median about 2, highest 2% from about 22 on). This excerpt belongs to a sample that is enriched for the highest values.
measured-metric: IFI (%)
The answer is to be given in %; state only the numeric part.

Known results for molecules:
CN[C@H]1C[C@@H]2O[C@](C)([C@H]1O)n1c3ccccc3c3c4c(c5c6ccccc6n2c5c31)C(=O)NC4 | 46.2
Cc1ccc(C)c(S(=O)(=O)N=C2C=C(SCC(=O)O)C(=O)c3ccccc32)c1 | 6.25

Output measured IFI for this item: CCC(c1nc2ccccc2c(=O)n1CCOC)N1CCNCC1 (stereo not given) 3.31
